Measured pKd of individual entries
biological target: T1, CD47 extracellular domain (biotin (enzymatically biotinylated; stated for the SPR experiment)); test: SPR; Biacore 3000, 25 °C; ~350 RU enzymatically biotinylated CD47^ext immobilised on a CM5 chip, VHHs flowed over at 40 uL/min in 10 mM HEPES, 150 mM NaCl, 3 mM EDTA, 0.05% P20, pH 7.4; 1:1 Langmuir model; duplicates; conditions: both partners purified
T1 construct: CD47 extracellular domain; bought protein Abcam ab174029; source: bought: Abcam (ab174029), enzymatically biotinylated
T1 sequence (chain, as listed by the source): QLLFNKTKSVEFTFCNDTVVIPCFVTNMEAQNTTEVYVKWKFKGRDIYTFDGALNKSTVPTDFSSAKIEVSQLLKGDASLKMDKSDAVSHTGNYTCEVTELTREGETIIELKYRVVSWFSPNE
pKd here is simply -log10 of the concentration when that concentration is written in mol/L.

Known results for binders:
{"binder": "Nb02 mutant M5 (VHH, One of five triple and two quadruple mutants combined from the round 1 mutations; source: E. coli TransB (DE3), purified (Ni2+ IMAC, HisTrap HP)) VHH: EVQLQASGGGLVQAGGSLRLSCAASGFTNERSQNMGWFRQAPGKEREGVACISSRVVECWYADSVKGRFTISRDNAKNTVYLQMNSLKPEDTAVYYCAAPRAITWHVFVGEHMCDYWGQGTQVTVSS", "pKd": 7.60}
{"binder": "Nb02 mutant M2 (VHH, One of five triple and two quadruple mutants combined from the round 1 mutations; source: E. coli TransB (DE3), purified (Ni2+ IMAC, HisTrap HP)) VHH: EVQLQASGGGLVQAGGSLRLSCAASGFTNERSQNMGWFRQAPGKEREGVACIQSRVVECWYADSVKGRFTISRDNAKNTVYLQMNSLKPEDTAVYYCAAPRAITWTVFVGEHMCDYWGQGTQVTVSS", "pKd": 7.94}

Now for a further binder.
Lab note: Nb02 mutant M3 (VHH, One of five triple and two quadruple mutants combined from the round 1 mutations; source: E. coli TransB (DE3), purified (Ni2+ IMAC, HisTrap HP)) VHH: EVQLQASGGGLVQAGGSLRLSCAASGFTNERSQNMGWFRQAPGKEREGVACIQSRVVECWYADSVKGRFTISRDNAKNTVYLQMNSLKPEDTAVYYCAAPRAITGHVFVGEHMCDYWGQGTQVTVSS gave pKd of 7.16
